System: Saccharomyces cerevisiae BY4741 SeMeCo community
assay.explanation: z-score of subpopulation abundance vs DMSO median, subpopulation auxotrophic for HM; higher = larger share of this subpopulation than in DMSO controls
test.parameters: 10 µM; 24 h; SM minimal medium; subpopulation (auxotrophy): HM
Counter-ions that a name gives are not always drawn.
Criterion: z-score of subpopulation abundance meeting or surpassing 0.05. Met: Met. Not met: Not met.

Does the compound CN[C@H](CC(C)C)C(=O)N[C@H]1C(=O)N[C@@H](CC(N)=O)C(=O)N[C@H]2C(=O)N[C@H]3C(=O)N[C@H](C(=O)N[C@H](C(=O)O)c4cc(O)cc(O)c4-c4cc3ccc4O)[C@H](O)c3ccc(c(Cl)c3)Oc3cc2cc(c3O[C@@H]2O[C@H](CO)[C@@H](O)[C@H](O)[C@H]2O[C@H]2C[C@](C)(N)[C@H](O)[C@H](C)O2)Oc2ccc(cc2Cl)[C@H]1O [Vancomycin HCl] have recorded z-score of subpopulation abundance that is 0.05 or more?
Met

---
Does the compound `CC(=O)Oc1ccccc1C(=O)O` have recorded z-score of subpopulation abundance that is 0.05 or more?
Not met

Proceed to `CC/C(=C(/CC)c1ccc(O)cc1)c1ccc(O)cc1`
Not met

Proceed to CCCN1CCCC[C@H]1C(=O)Nc1c(C)cccc1C [Ropivacaine]
Not met

Proceed to N/C(=N\N=C\c1ccc(Cl)cc1)N/N=C/c1ccc(Cl)cc1 [Robenidine Hydrochoride]
Met

====

mean cell size reference
Tested on: Saccharomyces cerevisiae BY4741 SeMeCo community
assay.explanation: mean cell size (pixel area) (pixels); higher = larger cells
test.parameters: 10 µM; 24 h; SM minimal medium
Structures can show the parent of a compound that is named as a salt.

# lookup: mean cell size of COc1cccc(CCc2ccccc2OCC(CN(C)C)OC(=O)CCC(=O)O)c1 (centres undefined) [Sarpogrelate hydrochloride]
12.3

Proceed to `CCCCC(F)(F)[C@@]1(O)CC[C@H]2[C@@H](CC(=O)[C@@H]2CCCCCCC(=O)O)O1`
12.6

Proceed to CC1(C)S[C@@H]2[C@H](NC(=O)Cc3ccccc3)C(=O)N2[C@H]1C(=O)O [Penicillin G Sodium]
12.6

---
# lookup: mean cell size of `Nc1nc2ccc(OC(F)(F)F)cc2s1`
12.6

Proceed to Clc1ccc(COC(Cn2ccnc2)c2ccc(Cl)cc2Cl)c(Cl)c1 (centres undefined) [Miconazole]
12.5

====

Test system: Saccharomyces cerevisiae BY4741 SeMeCo community
assay.explanation: z-score of subpopulation abundance vs DMSO median, subpopulation auxotrophic for LU; higher = larger share of this subpopulation than in DMSO controls
test.parameters: 10 µM; 24 h; SM minimal medium; subpopulation (auxotrophy): LU
Counter-ions that a name gives are not always drawn.
Criterion: z-score of subpopulation abundance meeting or surpassing 0.04. Met: t. Not met: f.

Please review the following examples before continuing.
Does the compound CN(C)CCCN1c2ccccc2Sc2ccccc21 [Promazine hydrochloride] have recorded z-score of subpopulation abundance that is 0.04 or more?
t

Proceed to CCCCNc1ccc(C(=O)OCCN(C)C)cc1 [Tetracaine HCl]
t

Proceed to `OCc1ccccc1O[C@@H]1O[C@H](CO)[C@@H](O)[C@H](O)[C@H]1O`
f

Proceed to CCCc1cc(C(N)=S)ccn1 [Protionamide]
f

Proceed to `Cc1cc2c(s1)Nc1ccccc1N=C2N1CCN(C)CC1`
f

---
Does the compound CCCN1CCCC[C@H]1C(=O)Nc1c(C)cccc1C [Ropivacaine HCl] have recorded z-score of subpopulation abundance that is 0.04 or more?
t

Proceed to Cc1ncc([N+](=O)[O-])n1CCOC(=O)c1ccccc1 [Metronidazole Benzoate]
f

Proceed to CN[C@@H]1[C@@H](O[C@H]2O[C@H](CO)[C@@H](N)[C@H](O)[C@H]2O)OC2C[C@@H](N)[C@@H](O[C@H]3[C@H](O)[C@@H](O)[C@H](N)C[C@@H]3N)OC2[C@@H]1O (some centres undefined) [Apramycin Sulfate]
t

====

Test system: Saccharomyces cerevisiae BY4741 SeMeCo community
assay.explanation: mean cell size (pixel area) (pixels); higher = larger cells
test.parameters: 10 µM; 24 h; SM minimal medium
Where a name gives a salt, the structure may show the parent alone.
measured.parameter: mean cell size
Enter a number only.

Here are 5 compounds together with their reported answers.
# lookup: mean cell size of CN1[C@@H]2CC[C@H]1C[C@@H](OC(c1ccccc1)c1ccccc1)C2 [Benztropine mesylate]
12.4

Proceed to `CC(=O)[C@@]1(O)CC[C@H]2[C@@H]3CCC4=CC(=O)CCC4=C3[C@@H](c3ccc(N(C)C)cc3)C[C@@]21C`
12.3

Proceed to CCC(C)(C)c1ccc(CC(C)CN2C[C@@H](C)O[C@@H](C)C2)cc1 (stereo partly specified) [Amorolfine HCl]
12

Proceed to CCc1nn(CCCN2CCN(c3cccc(Cl)c3)CC2)c(=O)n1CCOc1ccccc1 [Nefazodone hydrochloride]
12.4

Proceed to NC1CCN(c2nc3c(cc2F)c(=O)c(C(=O)O)cn3-c2ccc(F)cc2F)C1 (stereo unspecified) [Tosufloxacin p-Toluenesulfonate Hydrate]
12.3

---
# lookup: mean cell size of CN[C@@H]1[C@@H](O[C@H]2O[C@H](CO)[C@@H](N)[C@H](O)[C@H]2O)OC2C[C@@H](N)[C@@H](O[C@H]3[C@H](O)[C@@H](O)[C@H](N)C[C@@H]3N)OC2[C@@H]1O (stereo partly specified) [Apramycin Sulfate]
12

====

Tested on: Saccharomyces cerevisiae BY4741 SeMeCo community
assay.explanation: z-score of subpopulation abundance vs DMSO median, subpopulation auxotrophic for M; higher = larger share of this subpopulation than in DMSO controls
test.parameters: 10 µM; 24 h; SM minimal medium; subpopulation (auxotrophy): M
Counter-ions that a name gives are not always drawn.
measured.parameter: z-score of subpopulation abundance
Enter a number only.

Here are 3 molecules together with their reported answers.
Under Saccharomyces cerevisiae BY4741 SeMeCo community: z-score of subpopulation abundance value of `O=C(O)CCNC(=O)c1ccccc1` ?
0.51

Proceed to C[C@@H](NCCCc1cccc(C(F)(F)F)c1)c1cccc2ccccc12 [Cinacalcet HCl]
0.31

Proceed to `COC(=O)Nc1nc2cc(C(=O)c3ccccc3)ccc2[nH]1`
-0.56

---
Under Saccharomyces cerevisiae BY4741 SeMeCo community: z-score of subpopulation abundance value of C=CCCCCCCCCC(=O)[O-].C=CCCCCCCCCC(=O)[O-].[Zn+2] [Zinc Undecylenate] ?
-3.83

Proceed to CN(C)CC(c1ccc(O)cc1)C1(O)CCCCC1 (stereo not given)
-0.95

====

z-score of subpopulation abundance reference
Tested on: Saccharomyces cerevisiae BY4741 SeMeCo community
assay.explanation: z-score of subpopulation abundance vs DMSO median, subpopulation auxotrophic for LM; higher = larger share of this subpopulation than in DMSO controls
test.parameters: 10 µM; 24 h; SM minimal medium; subpopulation (auxotrophy): LM
Enter a number only.

# lookup: z-score of subpopulation abundance of `OCCN1CCN(CCCN2c3ccccc3Sc3ccc(Cl)cc32)CC1`
-0.01

---
# lookup: z-score of subpopulation abundance of O=C(O)CCC(=O)OC[C@@H](NC(=O)C(Cl)Cl)[C@H](O)c1ccc([N+](=O)[O-])cc1 [Chloramphenicol sodium succinate]
1.25

Proceed to `CC[C@H](C)[C@H](N)C1=N[C@H](C(=O)N[C@@H](CC(C)C)C(=O)N[C@H](CCC(=O)O)C(=O)N[C@H](C(=O)N[C@H]2CCCCNC(=O)[C@H](CC(N)=O)NC(=O)[C@@H](CC(=O)O)NC(=O)[C@H](Cc3cnc[nH]3)NC(=O)[C@@H](Cc3ccccc3)NC(=O)[C@H]([C@@H](C)CC)NC(=O)[C@@H](CCCN)NC2=O)[C@@H](C)CC)CS1`
1.28

====

System: Saccharomyces cerevisiae BY4741 SeMeCo community
assay.explanation: mean cell size (pixel area) (pixels); higher = larger cells
test.parameters: 10 µM; 24 h; SM minimal medium
Structures can show the parent of a compound that is named as a salt.
mean cell size reference

Here are 8 molecules together with their reported answers.
Under Saccharomyces cerevisiae BY4741 SeMeCo community: mean cell size value of COC(=O)C1=C(C)NC(C)=C(C(=O)OC2CCCN(Cc3ccccc3)C2)C1c1cccc([N+](=O)[O-])c1 (configuration not stated) [Benidipine HCl] ?
12.4

Proceed to CC1=C(C(=O)O)N2C(=O)[C@@H](NC(=O)[C@H](N)C3=CCC=CC3)[C@H]2SC1 [Cephradine monohydrate]
11.9

Proceed to CSCC1CN(/N=C/c2ccc([N+](=O)[O-])o2)C(=O)O1 (configuration not stated)
13.1

Proceed to CC1(C)S[C@@H]2[C@H](NC(=O)[C@H](NC(=O)N3CCN(S(C)(=O)=O)C3=O)c3ccccc3)C(=O)N2[C@H]1C(=O)O [Mezlocillin Sodium]
12.5

Proceed to COc1cc(N)c(Cl)cc1C(=O)NC1CCN(CCCOc2ccc(F)cc2)CC1OC (configuration not stated) [Cisapride]
12

Proceed to `OCCN1CCN(CCCN2c3ccccc3Sc3ccc(Cl)cc32)CC1`
12.3

Proceed to Cc1ccc(C(=O)C(C)CN2CCCCC2)cc1 (configuration not stated) [Tolperisone HCl]
12.6

Proceed to `Nc1ccc(C(=O)O)c(O)c1`
12

---
Under Saccharomyces cerevisiae BY4741 SeMeCo community: mean cell size value of C=C1c2cccc(O)c2C(=O)C2=C(O)[C@]3(O)C(=O)C(C(N)=O)=C(O)[C@@H](N(C)C)[C@@H]3[C@@H](O)[C@H]12 [Methacycline HCl] ?
12.2

Proceed to CC(C)N1CCN(c2ccc(OCC3COC(Cn4cncn4)(c4ccc(Cl)cc4Cl)O3)cc2)CC1 (configuration not stated)
12.1

Proceed to COc1ccc(CCN(C)CCCC(C#N)(c2ccc(OC)c(OC)c2)C(C)C)cc1OC (configuration not stated) [Verapamil HCl]
12.6

Proceed to CCCN1CCCC[C@H]1C(=O)Nc1c(C)cccc1C [Ropivacaine]
12.2

Proceed to `CCn1cc(C(=O)O)c(=O)c2cnc(N3CCNCC3)nc21`
12

Proceed to CC1CCc2c(N3CCC(O)CC3)c(F)cc3c(=O)c(C(=O)O)cn1c23 (configuration not stated)
12.6

Proceed to `COc1ccc(NS(=O)(=O)c2ccc(N)cc2)nn1`
12.2

Proceed to `Nc1ccc(S(=O)(=O)Nc2ccnn2-c2ccccc2)cc1`
12.5

Proceed to CCCCCC(=O)O[C@]1(C(C)=O)CC[C@H]2[C@@H]3CCC4=CC(=O)CC[C@]4(C)[C@H]3CC[C@@]21C [Hydroxyprogesterone caproate]
12.5
